target: PGL-3 condensates (Caenorhabditis elegans); test: Fluorescence imaging of dye partitioning in PGL-3 condensates (I-in, I-out); assay type: physicochemical; details: inside PGL-3 condensate; 10 μM dye, 5 μM protein; average of three images; one day of experiments
Sequence (G5EBV6 whole entry): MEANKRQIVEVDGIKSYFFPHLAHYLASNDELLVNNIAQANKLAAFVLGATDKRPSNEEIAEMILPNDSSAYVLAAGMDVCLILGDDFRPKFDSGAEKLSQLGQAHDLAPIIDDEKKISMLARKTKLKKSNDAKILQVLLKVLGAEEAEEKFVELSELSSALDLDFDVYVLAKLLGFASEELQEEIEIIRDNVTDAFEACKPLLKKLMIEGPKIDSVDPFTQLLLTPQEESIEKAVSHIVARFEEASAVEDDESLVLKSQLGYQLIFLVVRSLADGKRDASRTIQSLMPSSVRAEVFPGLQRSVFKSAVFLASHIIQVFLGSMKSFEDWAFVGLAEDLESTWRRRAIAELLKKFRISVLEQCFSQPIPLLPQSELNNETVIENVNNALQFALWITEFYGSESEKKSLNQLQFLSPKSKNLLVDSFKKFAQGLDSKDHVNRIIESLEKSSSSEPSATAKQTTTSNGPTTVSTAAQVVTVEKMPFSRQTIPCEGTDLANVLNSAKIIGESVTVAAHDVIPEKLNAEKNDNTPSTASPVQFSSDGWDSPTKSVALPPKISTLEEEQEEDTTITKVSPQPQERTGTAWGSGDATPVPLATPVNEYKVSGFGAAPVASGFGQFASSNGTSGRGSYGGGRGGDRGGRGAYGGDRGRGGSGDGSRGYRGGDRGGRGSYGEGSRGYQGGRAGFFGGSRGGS
Quick reference: Intensity Inside with Dye Average of the listed items.

[
  {
    "compound": "CC(=O)Oc1ccc2c(c1)Oc1cc(OC(C)=O)ccc1C21OC(=O)c2ccccc21 [Dye 9, Fluorescein diacetate]",
    "Intensity Inside with Dye Average": 828.6
  },
  {
    "compound": "O=c1cc(C(F)(F)F)c2ccc(O)cc2o1 [Dye 2, 7-Hydroxy-4-(trifluoromethyl)-coumarin]",
    "Intensity Inside with Dye Average": 269.8
  },
  {
    "compound": "O=C1OC2(c3ccc(O[C@@H]4O[C@H](CO)[C@H](O)[C@H](O)[C@H]4O)cc3Oc3cc(O[C@@H]4O[C@H](CO)[C@H](O)[C@H](O)[C@H]4O)ccc32)c2ccccc21 [Dye 12, Fluorescein di(β-D-galacto-pyranoside)]",
    "Intensity Inside with Dye Average": 690.1
  },
  {
    "compound": "N#CC1=c2cc3c4c(c2Oc2c1cc1c5c2CCCN5CCC1)CCC[N+]=4CCC3",
    "Intensity Inside with Dye Average": 730.8
  },
  {
    "compound": "CC(=O)N[C@H]1[C@H](Oc2ccc3c(c2)Oc2cc(O)ccc2C32OC(=O)c3ccccc32)O[C@H](CO)[C@H](O)[C@@H]1O (stereo partly shown)",
    "Intensity Inside with Dye Average": 1834.5
  },
  {
    "compound": "N=C(N)c1ccc(-c2cc3ccc(C(=N)N)cc3[nH]2)cc1",
    "Intensity Inside with Dye Average": 212.6
  },
  {
    "compound": "CC(=O)c1cc2cc3c4c(c2oc1=O)CCCN4CCC3",
    "Intensity Inside with Dye Average": 204.8
  }
]

###

biological target: PGL-3 condensates (Caenorhabditis elegans); assay: Fluorescence imaging of dye partitioning in PGL-3 condensates (I-in, I-out); type: physicochemical; settings: inside PGL-3 condensate; background corrected; one day of experiments
Counter-ions that a name gives are not always drawn.
Rule: measured Intensity Inside Dye-No Dye below 1000 gets Fulfilled; anything equal to or greater than 1000 gets Not fulfilled.

[
  {
    "compound": "CC(=O)N[C@H]1[C@H](Oc2ccc3c(c2)Oc2cc(O)ccc2C32OC(=O)c3ccccc32)O[C@H](CO)[C@H](O)[C@@H]1O (some centres unmarked)",
    "group": "Not fulfilled"
  },
  {
    "compound": "CC(=O)Oc1ccc2c(c1)Oc1cc(OC(C)=O)ccc1C21OC(=O)c2ccccc21 [Dye 9, Fluorescein diacetate]",
    "group": "Fulfilled"
  },
  {
    "compound": "O=C(CCCC[C@@H]1SCC2NC(=O)NC21)NCCNC(=O)c1ccc(-c2c3ccc(=O)cc-3oc3ccc(O)cc23)c(C(=O)O)c1 (some centres unmarked)",
    "group": "Not fulfilled"
  },
  {
    "compound": "O=C([O-])c1ccccc1C1=c2cc3c4c(c2Oc2c1cc1c5c2CCCN5CCC1)CCC[N+]=4CCC3 [Dye 17, Rhodamine 101 inner salt]",
    "group": "Not fulfilled"
  },
  {
    "compound": "CC/N=c1/cc2oc3cc(NCC)c(C)cc3c(-c3ccccc3C(=O)NCCOCCOCCN)c-2cc1C.O=C(O)C(F)(F)F",
    "group": "Not fulfilled"
  },
  {
    "compound": "COC(=O)c1ccccc1-c1c2ccc(=N)cc-2oc2cc(N)ccc12.Cl",
    "group": "Not fulfilled"
  },
  {
    "compound": "O=C1OC2(c3ccc(O)cc3Oc3cc(O)ccc32)c2ccccc21",
    "group": "Not fulfilled"
  },
  {
    "compound": "O=c1cc(C(F)(F)F)c2ccc(O)cc2o1 [Dye 2, 7-Hydroxy-4-(trifluoromethyl)-coumarin]",
    "group": "Fulfilled"
  },
  {
    "compound": "N=C(N)c1ccc(-c2cc3ccc(C(=N)N)cc3[nH]2)cc1",
    "group": "Fulfilled"
  },
  {
    "compound": "O=C(O)c1cc2cc3c4c(c2oc1=O)CCCN4CCC3",
    "group": "Not fulfilled"
  },
  {
    "compound": "CCN(CC)c1ccc2c(-c3ccccc3C(=O)O)c3ccc(=[N+](CC)CC)cc-3oc2c1",
    "group": "Not fulfilled"
  },
  {
    "compound": "O=C1OC2(c3ccc(O[C@@H]4O[C@H](CO)[C@H](O)[C@H](O)[C@H]4O)cc3Oc3cc(O[C@@H]4O[C@H](CO)[C@H](O)[C@H](O)[C@H]4O)ccc32)c2ccccc21 [Dye 12, Fluorescein di(β-D-galacto-pyranoside)]",
    "group": "Fulfilled"
  },
  {
    "compound": "CC(=O)c1cc2cc3c4c(c2oc1=O)CCCN4CCC3",
    "group": "Fulfilled"
  },
  {
    "compound": "N#CC1=c2cc3c4c(c2Oc2c1cc1c5c2CCCN5CCC1)CCC[N+]=4CCC3",
    "group": "Fulfilled"
  }
]
